Just for reference, the RNAGym collection of RNA variant scans (doi:10.7554/elife.80360) is where these values come from.

Hi there, I'd appreciate the recorded self-cleavage for every entry that follows.
B1: HDV Ribozyme (parent)
chain: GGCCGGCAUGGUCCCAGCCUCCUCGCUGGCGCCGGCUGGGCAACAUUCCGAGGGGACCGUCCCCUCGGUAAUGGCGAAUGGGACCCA

# Variants of: B1
# test.summary: self-cleavage, relative activity (ratio to wild type); higher = more cleavage; co-transcriptional

Entry U23A U69G — recorded self-cleavage = 0.911

Entry C30A G38A — recorded self-cleavage = 0.219

Entry U79G G80C — recorded self-cleavage = 0.277

Entry G28U A87G — recorded self-cleavage = 0.0817

Entry C22A A42U — recorded self-cleavage = 0.111

Entry G11C C30U — recorded self-cleavage = 0.0604

Entry G55C C75U — recorded self-cleavage = 0.0361

Entry C49A C61U — recorded self-cleavage = 0.789

Entry C85U — recorded self-cleavage = 0.978

Entry C22U A42G — recorded self-cleavage = 0.0755

Entry C4A G10C — recorded self-cleavage = 0.141

Entry G76A — recorded self-cleavage = 1.04

Entry C41A G74U — recorded self-cleavage = 0.513

Entry C24G C63U — recorded self-cleavage = 0.0875

Entry C62A G74A — recorded self-cleavage = 0.619

Entry C15G U37C — recorded self-cleavage = 0.875

Entry U9G A42U — recorded self-cleavage = 0.587

Entry C7G A45U — recorded self-cleavage = 0.383

Entry C44A A87U — recorded self-cleavage = 0.686

Entry G11U G31A — recorded self-cleavage = 0.179

Entry U12C A71C — recorded self-cleavage = 0.0831

Entry A56C C57G — recorded self-cleavage = 0.978

Entry G35C U37C — recorded self-cleavage = 0.18

Entry U9A G34A — recorded self-cleavage = 0.232

Entry C26U C49A — recorded self-cleavage = 1.11

Entry G40C G80A — recorded self-cleavage = 0.0723

Entry C26A G82A — recorded self-cleavage = 0.721

Entry C33A A70C — recorded self-cleavage = 0.17

Entry U72C G74A — recorded self-cleavage = 0.363

Entry U27G G67U — recorded self-cleavage = 0.764

Entry U9A U47G — recorded self-cleavage = 0.772

Entry A16G C64U — recorded self-cleavage = 0.942

Entry G40U C64U — recorded self-cleavage = 0.59

Entry G2A A70C — recorded self-cleavage = 0.157

Entry G5C G82C — recorded self-cleavage = 0

Entry C19U C41G — recorded self-cleavage = 0.116

Entry C4U U79C — recorded self-cleavage = 0.136

Entry C44A G55C — recorded self-cleavage = 0.831

Entry G25C G28C — recorded self-cleavage = 0

Entry C21U A42U — recorded self-cleavage = 0.0845

Entry G35A A45U — recorded self-cleavage = 0.406

Entry C7A G59A — recorded self-cleavage = 0.753

Entry A77U A87C — recorded self-cleavage = 0.655

Entry C30U G31A — recorded self-cleavage = 0.168

Entry C3G U69G — recorded self-cleavage = 0.658

Entry C7U U60G — recorded self-cleavage = 0.831

Entry C19G U60A — recorded self-cleavage = 0.0959

Entry C32A G82A — recorded self-cleavage = 0.0361

Entry G5U G10U — recorded self-cleavage = 0.181

Entry G6A C85A — recorded self-cleavage = 0.895

Entry C66G G81C — recorded self-cleavage = 0.193

Entry U12A C32G — recorded self-cleavage = 0.225

Entry C41U A78G — recorded self-cleavage = 0.724

Entry U20A G31C — recorded self-cleavage = 0.0475

Entry C48A U60C — recorded self-cleavage = 0.91

Entry G10C A87C — recorded self-cleavage = 1.17

Entry C4U C84G — recorded self-cleavage = 0.19

Entry A16C G31C — recorded self-cleavage = 0.0639

Entry G28A U65C — recorded self-cleavage = 0.0415

Entry A16C C84U — recorded self-cleavage = 0.727

Entry C32U A42U — recorded self-cleavage = 0.591

Entry C7U G50U — recorded self-cleavage = 0.864

Entry C75U U79C — recorded self-cleavage = 0.172

Entry C64G U69C — recorded self-cleavage = 1.29

Entry G74U G82A — recorded self-cleavage = 0.217

Entry G31A G38A — recorded self-cleavage = 0.14
